- target: PAPD7 (Homo sapiens)
- Sequence (Q5XG87 whole entry): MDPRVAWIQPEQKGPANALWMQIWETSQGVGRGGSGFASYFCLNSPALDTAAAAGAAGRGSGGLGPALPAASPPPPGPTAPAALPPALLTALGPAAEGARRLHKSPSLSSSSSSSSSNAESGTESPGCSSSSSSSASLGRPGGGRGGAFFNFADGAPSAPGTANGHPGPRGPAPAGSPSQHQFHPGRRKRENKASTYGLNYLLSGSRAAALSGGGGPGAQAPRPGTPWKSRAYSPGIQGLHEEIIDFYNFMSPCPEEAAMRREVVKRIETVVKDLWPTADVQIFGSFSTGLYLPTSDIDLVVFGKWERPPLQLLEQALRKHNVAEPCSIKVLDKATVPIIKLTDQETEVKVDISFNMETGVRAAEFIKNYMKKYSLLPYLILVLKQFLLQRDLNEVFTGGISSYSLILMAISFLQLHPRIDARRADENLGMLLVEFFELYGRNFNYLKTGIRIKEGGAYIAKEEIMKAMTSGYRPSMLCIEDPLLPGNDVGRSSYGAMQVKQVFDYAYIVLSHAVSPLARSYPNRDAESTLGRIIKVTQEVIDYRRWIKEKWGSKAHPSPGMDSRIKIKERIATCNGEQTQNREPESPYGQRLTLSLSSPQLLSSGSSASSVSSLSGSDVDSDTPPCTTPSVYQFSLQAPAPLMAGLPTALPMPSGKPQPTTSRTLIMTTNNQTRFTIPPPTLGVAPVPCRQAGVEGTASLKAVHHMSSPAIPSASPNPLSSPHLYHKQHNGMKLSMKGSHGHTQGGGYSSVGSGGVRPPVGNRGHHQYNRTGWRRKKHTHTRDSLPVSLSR
- test-protocol: HBsAg ELISA in HepG2/2.2.15 PAPD5 KO cells (PAPD7 inhibitory activity)
- Format: cell-based
- experimental-setup: Table 3, HBsAg secretion, 4 days, read-out: pIC50 PAPD7 (PAPD5 KO cells) (converted)
Strictly below 5 nM in IC50: YES. Otherwise: NO.

Does this compound meet the criterion IC50 < 5 nM? COCCCOc1cc2c(nc1OC)-c1c(cc(C(=O)O)c(=O)n1C1CC1)C(C(C)(C)C)O2 (racemic) YES

A record lists COCCCOc1cc2c(nc1OC)-c1[nH]c(=O)c(C(=O)O)cc1C(C(C)C)O2 (racemic) . Is its IC50 below 5 nM? NO

Say whether its IC50 is strictly beneath 5 nM. Entry: COCCCOc1cc2c(nc1OC)-c1c(cc(C(=O)O)c(=O)n1C1CC1)C(C(C)C)O2 (racemic) YES

# strict comparison: is reported IC50 < 5 nM? input = COCCCOc1cc2c(nc1C1CC1)-c1c(cc(C(=O)O)c(=O)n1C1CC1)C(C(C)(C)C)O2 (racemic) YES

is_below(IC50, 5 nM) for COCCCOc1cc2c(nc1OC)-c1c(cc(C(=O)O)c(=O)n1CCO)C(C(C)C)O2 (racemic) ? NO

---

- test-protocol: logD(pH 7.4)
- Assay type: physicochemical
# logD values compiled below
Reply: number alone, nothing else.

COCCCOc1cc2c(nc1OC)-c1[nH]c(=O)c(C(=O)O)cc1C(C(C)(C)C)O2 (racemic) :: 1.1

Form field: reported logD of COCCCOc1cc2c(nc1OC)-c1[nH]c(=O)c(C(=O)O)cc1C(C(C)(C)C)C2 (racemic) [Example 701, reference compound] 1.4

---

- test-protocol: Plasma protein binding (fraction unbound)
reported-metric: fraction unbound

Could you share which fraction unbound value was measured for COCCCOc1cc2c(nc1OC)-c1c(cc(C(=O)O)c(=O)n1C1CC1)C(C(C)(C)C)O2 (racemic) [Example 506] ? 0.347

---

- System: HBsAg secretion in HepG2/2.2.15 WT cells (combined effect of PAPD5 and PAPD7 inhibition)
reported-metric: pIC50
Lab note — pIC50 values are minus log10 of concentrations in M.

COCCCOc1cc2c(nc1OC)-c1c(cc(C(=O)O)c(=O)n1C)C(C(C)C)O2 (racemic) :: 8.20
COCCCOc1cc2c(nc1C1CC1)-c1c(cc(C(=O)O)c(=O)n1C1CC1)C(C(C)(C)C)O2 (racemic) :: 10.20
COCCCOc1cc2c(nc1OC)-c1c(cc(C(=O)O)c(=O)n1C1CC1)C(C(C)C)O2 (racemic) :: 9.30

API: value(readout=pIC50, system=HBsAg secretion in HepG2/2.2.15 WT cells (combined effect of PAPD5 and PAPD7 inhibition)) for record COCCCOc1cc2c(nc1OC)-c1[nH]c(=O)c(C(=O)O)cc1C(C(C)(C)C)O2 (racemic) 8.70

---

Measured IC50 values are reported for all entries that follow.
- target: PAPD5 (Homo sapiens)
- test-protocol: cell-based
- Parameters: endogenous in cells; host or cells: HepG2/2.2.15 PAPD7 knock-out cells (CRISPR/Cas9)
- experimental-setup: Table 5; PAPD7 KO cells; read-out: PIC50 PAPD5 (PAPD7 KO cells) (converted)
Lab book: enter the figure in nM, no units written.

COCCCOc1cc2c(nc1OC)-c1c(cc(C(=O)O)c(=O)n1C1CC1)C(C(C)(C)C)O2 (racemic) :: 0.0794
COCCCOc1cc2c(nc1OC)-c1c(cc(C(=O)O)c(=O)n1C1CC1)C(C(C)(C)C)C2 (racemic) [Example 702, reference compound] :: 3.16
COCCCOc1cc2c(nc1OC)-c1[nH]c(=O)c(C(=O)O)cc1C(C(C)(C)C)O2 (racemic) :: 2

Please examine the following record next.
Please look up its IC50: COCCCOc1cc2c(cc1OC)-c1[nH]c(=O)c(C(=O)O)cc1C(C(C)(C)C)O2 (racemic) [Example 801, reference compound] 50.1

---

- target: PAPD5 (Homo sapiens)
- test-protocol: cell-based
- Set-up: endogenous in cells; host or cells: HepG2/2.2.15 PAPD7 knock-out cells (CRISPR/Cas9)
- experimental-setup: Table 3; PAPD7 KO cells vs PAPD5 KO cells
reported-metric: Fold sel. for PAPD5 over PAPD7 (Fold)
Quick reminder: number only, in Fold, skip the unit.

CCn1c2c(cc(C(=O)O)c1=O)C(C(C)C)Oc1cc(OCCCOC)c(OC)nc1-2 (racemic) [Example 503] :: 5.9

Entry under review: COCCCOc1cc2c(nc1OC)-c1[nH]c(=O)c(C(=O)O)cc1C(C(C)C)O2 (racemic) [Example 501] . Reported Fold sel. for PAPD5 over PAPD7? 7.1

Using the record for COCCCOc1cc2c(nc1C1CC1)-c1[nH]c(=O)c(C(=O)O)cc1C(C(C)(C)C)O2 (racemic) [Example 507] , report its Fold sel. for PAPD5 over PAPD7. 1.8

Reported Fold sel. for PAPD5 over PAPD7, molecule COCCCOc1cc2c(nc1OC)-c1c(cc(C(=O)O)c(=O)n1C1CC1)C(C(C)(C)C)O2 (racemic) [Example 506] : ____ 6.1

---

- test-protocol: Plasma protein binding (fraction unbound)
- experimental-setup: fu, ELISA, fraction unbound in ELISA, calculated with p = 0.1
reported-metric: fraction unbound
Provide a numeric answer; units are not to be included.

GET /values?readout=fraction unbound&item= COCCCOc1cc2c(nc1OC)-c1c(cc(C(=O)O)c(=O)n1C1CC1)C(C(C)(C)C)O2 (racemic) 0.84

---

pIC50: recorded values
- target: PAPD5 (Homo sapiens)
- test-protocol: cell-based
- Parameters: endogenous in cells; host or cells: HepG2/2.2.15 PAPD7 knock-out cells (CRISPR/Cas9)
- experimental-setup: unbound IC50 in protein-free medium, IC50ELISA*fu,ELISA; read-out: IC50u
Just the number, please; pIC50 means minus log10 of the concentration in mol/L.

COCCCOc1cc2c(cc1OC)-c1cc(=O)c(C(=O)O)cn1[C@H](C(C)C)C2 :: 8.87

Could you now look at the following compound, please?
Bench note: what pIC50 did COCCCOc1cc2c(nc1OC)-c1c(cc(C(=O)O)c(=O)n1C1CC1)C(C(C)(C)C)O2 (racemic) show? 10.15

---

Each entry below lists one item and its recorded IC50 value.
- target: PAPD5 (Homo sapiens)
- test-protocol: cell-based
- Parameters: endogenous in cells; host or cells: HepG2/2.2.15 PAPD7 knock-out cells (CRISPR/Cas9)
- experimental-setup: Table 3; HepG2/2.2.15 PAPD7 KO cells, HBsAg secretion, 4 days; read-out: pIC50 PAPD5 (PAPD7 KO cells) (converted)
Give just the number in nM; leave the unit off.

Worked examples, 2 molecules total:
COCCCOc1cc2c(nc1OC)-c1[nH]c(=O)c(C(=O)O)cc1C(C(C)C)O2 (racemic) :: 6.31
COCCCOc1cc2c(nc1OC)-c1c(cc(C(=O)O)c(=O)n1C1CC1)C(C(C)C)O2 (racemic) :: 0.631

Can you look up the measured IC50 of COCCCOc1cc2c(nc1OC)-c1[nH]c(=O)c(C(=O)O)cc1C1(CCCC1)O2 for me? 31.6

Could you tell me which IC50 is on file for COCCCOc1cc2c(nc1OC)-c1c(cc(C(=O)O)c(=O)n1CC(F)F)C(C(C)C)O2 (racemic) ? 0.794

---

Entries annotated with measured IC50
- Test system: HBsAg secretion in HepG2/2.2.15 WT cells (combined effect of PAPD5 and PAPD7 inhibition)
Respond numerically; units are nM and should not be typed.

Completed entries (count: 3):
COCCCOc1cc2c(nc1OC)-c1c(cc(C(=O)O)c(=O)n1CC(F)F)C(C(C)C)O2 (racemic) :: 1.26
COCCCOc1cc2c(nc1OC)-c1[nH]c(=O)c(C(=O)O)cc1C(C(C)C)O2 (racemic) :: 7.94
CCn1c2c(cc(C(=O)O)c1=O)C(C(C)C)Oc1cc(OCCCOC)c(OC)nc1-2 (racemic) :: 1.26

Okay, next one:
For the compound shown here, COCCCOc1cc2c(cc1OC)-c1[nH]c(=O)c(C(=O)O)cc1C(C(C)(C)C)O2 (racemic) [Example 801, reference compound] , give the reported IC50. 39.8

---

- target: PAPD5 (Homo sapiens, UniProt Q8NDF8)
- Sequence (Q8NDF8 whole entry): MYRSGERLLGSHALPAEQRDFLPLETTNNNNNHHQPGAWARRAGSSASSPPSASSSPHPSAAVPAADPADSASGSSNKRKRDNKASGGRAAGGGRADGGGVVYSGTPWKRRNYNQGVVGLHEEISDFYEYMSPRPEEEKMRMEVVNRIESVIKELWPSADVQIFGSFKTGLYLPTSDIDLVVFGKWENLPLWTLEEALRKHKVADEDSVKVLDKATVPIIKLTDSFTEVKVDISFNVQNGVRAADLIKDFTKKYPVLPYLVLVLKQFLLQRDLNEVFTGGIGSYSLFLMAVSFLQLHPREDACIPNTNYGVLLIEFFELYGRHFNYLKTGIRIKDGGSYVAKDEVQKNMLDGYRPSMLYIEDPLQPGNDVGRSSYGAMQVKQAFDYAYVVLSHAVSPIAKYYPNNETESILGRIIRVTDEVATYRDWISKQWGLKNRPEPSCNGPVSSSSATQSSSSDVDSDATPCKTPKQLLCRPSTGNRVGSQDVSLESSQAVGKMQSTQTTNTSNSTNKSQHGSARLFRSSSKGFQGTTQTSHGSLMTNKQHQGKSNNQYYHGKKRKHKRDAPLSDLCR
- test-protocol: cell-based
- Set-up: endogenous in cells; host or cells: HepG2/2.2.15 PAPD7 knock-out cells (CRISPR/Cas9)
- experimental-setup: Table 3; PAPD7 KO cells vs PAPD5 KO cells
Friendly reminder: Fold sel. for PAPD5 over PAPD7 below 6 Fold is Y, at or above is N.

Record excerpt, results attached:
COCCCOc1cc2c(nc1C1CC1)-c1c(cc(C(=O)O)c(=O)n1C1CC1)C(C(C)(C)C)O2 (racemic) [Example 508] :: Y
COCCCOc1cc2c(nc1OC)-c1c(cc(C(=O)O)c(=O)n1CC(F)F)C(C(C)C)O2 (racemic) [Example 511] :: N
COCCCOc1cc2c(nc1OC)-c1[nH]c(=O)c(C(=O)O)cc1C1(CCCC1)O2 [Example 509] :: N
COCCCOc1cc2c(nc1OC)-c1c(cc(C(=O)O)c(=O)n1CCO)C(C(C)C)O2 (racemic) [Example 510] :: N
COCCCOc1cc2c(nc1OC)-c1c(cc(C(=O)O)c(=O)n1C1CC1)C(C(C)C)O2 (racemic) [Example 504] :: Y

API: query returns whether the compound falls strictly under 6 Fold in Fold sel. for PAPD5 over PAPD7. Query: COCCCOc1cc2c(nc1OC)-c1[nH]c(=O)c(C(=O)O)cc1C(C(C)(C)C)O2 (racemic) [Example 505] Y
